Each item that follows carries a reported logP.
Answer with a bare number; do not write a unit.

Before answering, review these 8 worked examples.
{"molecule": "Clc1ccc(C(Cn2ccnc2)OCC2CCCCC2)c(Cl)c1 (stereo unspecified)", "logP": 6.5}
{"molecule": "CC(C)CCOC(Cn1ccnc1)c1ccc(Cl)cc1Cl (stereo unspecified)", "logP": 5.71}
{"molecule": "CCCC(C)OC(Cn1ccnc1)c1ccc(Cl)cc1Cl (stereo unspecified)", "logP": 4.9}
{"molecule": "C=C(C)COC(Cn1ccnc1)c1ccc(Cl)cc1Cl (stereo unspecified)", "logP": 4.26}
{"molecule": "CCC(C)OC(Cn1ccnc1)c1ccc(Cl)cc1Cl (stereo unspecified)", "logP": 4.5}
{"molecule": "CCCCC(CC)COC(Cn1ccnc1)c1ccc(Cl)cc1Cl (stereo unspecified)", "logP": 6.89}
{"molecule": "CC(C)=CCOC(Cn1ccnc1)c1ccc(Cl)cc1Cl (stereo unspecified)", "logP": 5.04}
{"molecule": "C=CCCCOC(Cn1ccnc1)c1ccc(Cl)cc1Cl (stereo unspecified)", "logP": 4.94}

[in] Name the recorded logP for CCC(CC)COC(Cn1ccnc1)c1ccc(Cl)cc1Cl (stereo unspecified) .
[out] 6.24

[in] Name the recorded logP for C=CCCOC(Cn1ccnc1)c1ccc(Cl)cc1Cl (stereo unspecified) .
[out] 4.33

[in] Name the recorded logP for CCC(CC)OC(Cn1ccnc1)c1ccc(Cl)cc1Cl (stereo unspecified) .
[out] 5.13
